- Organism: Rattus norvegicus
- Assay method text: Open TG-GATES - Regimen: Daily Repeat
- Assay type: toxicity, organism-based, Sprague-Dawley
- Parameters: regimen Daily Repeat, gender Male, age 6 weeks
- Condition summary: in vivo, po, 300 mg/kg, […], tissue Plasma, route gavage, dose level Middle, time 28 day
Below, each entry is listed alongside its reported BUN.
Readout kind: BUN

COC(=O)C1=C(C)NC(C)=C(C(=O)OC)C1c1ccccc1[N+](=O)[O-] 17.8 mg/dL
CN/C(=N/CCSCc1nc[nH]c1C)NC#N 18.6 mg/dL
Cc1nnc2n1-c1ccc(Cl)cc1C(c1ccccc1Cl)=NC2 16.8 mg/dL
CNC(=C[N+](=O)[O-])NCCSCc1ccc(CN(C)C)o1 18 mg/dL
CCOc1ccc(NC(C)=O)cc1 14.4 mg/dL
O=C(OC[C@H]1O[C@@H](OC(=O)c2cc(O)c(O)c(OC(=O)c3cc(O)c(O)c(O)c3)c2)[C@H](OC(=O)c2cc(O)c(O)c(OC(=O)c3cc(O)c(O)c(O)c3)c2)[C@@H](OC(=O)c2cc(O)c(O)c(OC(=O)c3cc(O)c(O)c(O)c3)c2)[C@@H]1OC(=O)c1cc(O)c(O)c(OC(=O)c2cc(O)c(O)c(O)c2)c1)c1cc(O)c(O)c(OC(=O)c2cc(O)c(O)c(O)c2)c1 20 mg/dL

----------
- Organism: Rattus norvegicus
- Assay method text: Open TG-GATES - Regimen: Single
- Format: toxicity, organism-based, Sprague-Dawley
- Set-up: regimen Single, gender Male, age 6 weeks
- Condition summary: in vivo, po, 1000 mg/kg, 24 h, tissue Plasma, route gavage, dose level High
Readout kind: Cl (meq/L)

CNC(=C[N+](=O)[O-])NCCSCc1ccc(CN(C)C)o1 101.6
Cc1nnc2n1-c1ccc(Cl)cc1C(c1ccccc1Cl)=NC2 100.8
O=C(OC[C@H]1O[C@@H](OC(=O)c2cc(O)c(O)c(OC(=O)c3cc(O)c(O)c(O)c3)c2)[C@H](OC(=O)c2cc(O)c(O)c(OC(=O)c3cc(O)c(O)c(O)c3)c2)[C@@H](OC(=O)c2cc(O)c(O)c(OC(=O)c3cc(O)c(O)c(O)c3)c2)[C@@H]1OC(=O)c1cc(O)c(O)c(OC(=O)c2cc(O)c(O)c(O)c2)c1)c1cc(O)c(O)c(OC(=O)c2cc(O)c(O)c(O)c2)c1 104.2
COC(=O)C1=C(C)NC(C)=C(C(=O)OC)C1c1ccccc1[N+](=O)[O-] 106
CN/C(=N/CCSCc1nc[nH]c1C)NC#N 102

----------
Listed next: entries and their corresponding MCV.
- Organism: Rattus norvegicus
- Assay method text: Open TG-GATES - Regimen: Daily Repeat
- Assay type: toxicity, organism-based, Sprague-Dawley
- Design: regimen Daily Repeat, gender Male, age 6 weeks
- Condition summary: in vivo, po, 300 mg/kg, […], tissue Blood, route gavage, dose level Middle, time 7 day
Readout kind: MCV (fL)

Compound	Readout kind	Units text	Measured value
COC(=O)C1=C(C)NC(C)=C(C(=O)OC)C1c1ccccc1[N+](=O)[O-] [NIFEDIPINE]	MCV	fL	63.6
Cc1nnc2n1-c1ccc(Cl)cc1C(c1ccccc1Cl)=NC2 [TRIAZOLAM]	MCV	fL	63.6
O=C(OC[C@H]1O[C@@H](OC(=O)c2cc(O)c(O)c(OC(=O)c3cc(O)c(O)c(O)c3)c2)[C@H](OC(=O)c2cc(O)c(O)c(OC(=O)c3cc(O)c(O)c(O)c3)c2)[C@@H](OC(=O)c2cc(O)c(O)c(OC(=O)c3cc(O)c(O)c(O)c3)c2)[C@@H]1OC(=O)c1cc(O)c(O)c(OC(=O)c2cc(O)c(O)c(O)c2)c1)c1cc(O)c(O)c(OC(=O)c2cc(O)c(O)c(O)c2)c1 [TANNIC ACID]	MCV	fL	64.2
CCOc1ccc(NC(C)=O)cc1 [PHENACETIN]	MCV	fL	60.2
CNC(=C[N+](=O)[O-])NCCSCc1ccc(CN(C)C)o1 [RANITIDINE]	MCV	fL	62
CN/C(=N/CCSCc1nc[nH]c1C)NC#N [CIMETIDINE]	MCV	fL	63.2

----------
- Species: Rattus norvegicus
- Assay method text: Open TG-GATES - Regimen: Single
- Type: toxicity, organism-based, Sprague-Dawley
- Design: regimen Single, gender Male, age 6 weeks
- Condition summary: in vivo, po, 300 mg/kg, 3 h, tissue Plasma, route gavage, dose level Middle
Readout kind: Ca (mg/dL)

O=C(OC[C@H]1O[C@@H](OC(=O)c2cc(O)c(O)c(OC(=O)c3cc(O)c(O)c(O)c3)c2)[C@H](OC(=O)c2cc(O)c(O)c(OC(=O)c3cc(O)c(O)c(O)c3)c2)[C@@H](OC(=O)c2cc(O)c(O)c(OC(=O)c3cc(O)c(O)c(O)c3)c2)[C@@H]1OC(=O)c1cc(O)c(O)c(OC(=O)c2cc(O)c(O)c(O)c2)c1)c1cc(O)c(O)c(OC(=O)c2cc(O)c(O)c(O)c2)c1 10.7
Cc1nnc2n1-c1ccc(Cl)cc1C(c1ccccc1Cl)=NC2 11.3
CNC(=C[N+](=O)[O-])NCCSCc1ccc(CN(C)C)o1 10.7
COC(=O)C1=C(C)NC(C)=C(C(=O)OC)C1c1ccccc1[N+](=O)[O-] 11.6
CN/C(=N/CCSCc1nc[nH]c1C)NC#N 10.7

----------
- Species on record: Rattus norvegicus
- Assay method text: Open TG-GATES - Regimen: Single
- Type: toxicity, organism-based, Sprague-Dawley
- Set-up: regimen Single, gender Male, age 6 weeks
- Condition summary: in vivo, po, 300 mg/kg, 24 h, tissue Kidney, route gavage, dose level Middle
Readout kind: KIDNEY_L (g)

CNC(=C[N+](=O)[O-])NCCSCc1ccc(CN(C)C)o1 1
O=C(OC[C@H]1O[C@@H](OC(=O)c2cc(O)c(O)c(OC(=O)c3cc(O)c(O)c(O)c3)c2)[C@H](OC(=O)c2cc(O)c(O)c(OC(=O)c3cc(O)c(O)c(O)c3)c2)[C@@H](OC(=O)c2cc(O)c(O)c(OC(=O)c3cc(O)c(O)c(O)c3)c2)[C@@H]1OC(=O)c1cc(O)c(O)c(OC(=O)c2cc(O)c(O)c(O)c2)c1)c1cc(O)c(O)c(OC(=O)c2cc(O)c(O)c(O)c2)c1 0.9
COC(=O)C1=C(C)NC(C)=C(C(=O)OC)C1c1ccccc1[N+](=O)[O-] 0.9
Cc1nnc2n1-c1ccc(Cl)cc1C(c1ccccc1Cl)=NC2 0.9
CN/C(=N/CCSCc1nc[nH]c1C)NC#N 1

----------
- Organism: Rattus norvegicus
- Assay method text: Open TG-GATES - Regimen: Daily Repeat
- Format: toxicity, organism-based, Sprague-Dawley
- Design: regimen Daily Repeat, gender Male, age 6 weeks
- Condition summary: in vivo, po, 1000 mg/kg, […], tissue Plasma, route gavage, dose level High, time 28 day

Compound	K
CCOc1ccc(NC(C)=O)cc1 [PHENACETIN]	4.4 meq/L
CN/C(=N/CCSCc1nc[nH]c1C)NC#N [CIMETIDINE]	3.5 meq/L
CNC(=C[N+](=O)[O-])NCCSCc1ccc(CN(C)C)o1 [RANITIDINE]	3.8 meq/L
O=C(OC[C@H]1O[C@@H](OC(=O)c2cc(O)c(O)c(OC(=O)c3cc(O)c(O)c(O)c3)c2)[C@H](OC(=O)c2cc(O)c(O)c(OC(=O)c3cc(O)c(O)c(O)c3)c2)[C@@H](OC(=O)c2cc(O)c(O)c(OC(=O)c3cc(O)c(O)c(O)c3)c2)[C@@H]1OC(=O)c1cc(O)c(O)c(OC(=O)c2cc(O)c(O)c(O)c2)c1)c1cc(O)c(O)c(OC(=O)c2cc(O)c(O)c(O)c2)c1 [TANNIC ACID]	4.5 meq/L
COC(=O)C1=C(C)NC(C)=C(C(=O)OC)C1c1ccccc1[N+](=O)[O-] [NIFEDIPINE]	3.7 meq/L
Cc1nnc2n1-c1ccc(Cl)cc1C(c1ccccc1Cl)=NC2 [TRIAZOLAM]	4 meq/L

----------
# KIDNEY_R per entry
- Species: Rattus norvegicus
- Assay method text: Open TG-GATES - Regimen: Daily Repeat
- Format: toxicity, organism-based, Sprague-Dawley
- Parameters: regimen Daily Repeat, gender Male, age 6 weeks
- Condition summary: in vivo, po, 100 mg/kg, […], tissue Kidney, route gavage, dose level Low, time 28 day
Readout kind: KIDNEY_R (g)

CNC(=C[N+](=O)[O-])NCCSCc1ccc(CN(C)C)o1 1.3
COC(=O)C1=C(C)NC(C)=C(C(=O)OC)C1c1ccccc1[N+](=O)[O-] 1.3
CN/C(=N/CCSCc1nc[nH]c1C)NC#N 1.4
O=C(OC[C@H]1O[C@@H](OC(=O)c2cc(O)c(O)c(OC(=O)c3cc(O)c(O)c(O)c3)c2)[C@H](OC(=O)c2cc(O)c(O)c(OC(=O)c3cc(O)c(O)c(O)c3)c2)[C@@H](OC(=O)c2cc(O)c(O)c(OC(=O)c3cc(O)c(O)c(O)c3)c2)[C@@H]1OC(=O)c1cc(O)c(O)c(OC(=O)c2cc(O)c(O)c(O)c2)c1)c1cc(O)c(O)c(OC(=O)c2cc(O)c(O)c(O)c2)c1 1.5
CCOc1ccc(NC(C)=O)cc1 1.4
Cc1nnc2n1-c1ccc(Cl)cc1C(c1ccccc1Cl)=NC2 1.4

Source of measurements: ChEMBL document CHEMBL3885861
